Listing of recorded protein stability index by entry.
Test: protein stability index of a GFP-peptide fusion (yeast GPS) (PSI 1-4); higher = more stable; sorted into four equal gates, so the index is relative within each strain
Conditions: san1∆
Property Label: protein stability index

{"columns": ["Input Sequence", "Observed Result"],
 "data": [
  ["KPNNTANTGGGLFGANS [YGL172W/NUP49]", 3.03],
  ["PTTNEPAKPALSFGTAT [YJL041W/NSP1]", 2.96],
  ["AQNQGMFGAKPAGTSLF [YGL172W/NUP49]", 2.34],
  ["YYAKKRAFTKKVSSASA [RPL16B]", 1.95],
  ["RMAKYLNNTHVISSGPL [RPC53]", 2.74],
  ["PEGRLYQVEYAFKATNQ [SCL1]", 1.78],
  ["TGHSQGLVTAVAIAETD [FAS1]", 3.29],
  ["NLLIQRLNFNQNSSKIV [SWI3]", 3.06],
  ["RLKDVEWVKLHRLLQRA [RMP1]", 3.24],
  ["MVLVQDLLHPTAASEAR [RPS27A]", 3.17],
  ["ASLKHDNETKAMLINLI [RPN3]", 2.8],
  ["KSSLYSAQDLLDKHERK [YIL149C/MLP2]", 2.83],
  ["AYSPKQDEQKHNENENS [RPO21]", 2.57],
  ["LEDLFSYRNGMASYMLN [YJR042W/NUP85]", 1.89],
  ["ETSGVTTALLKDEEIEK [MED8]", 2.84],
  ["NLNDKFGIYILTQGING [MED1]", 1.6],
  ["NGAFQNSSNLSYNNTGI [RRP4]", 2.98],
  ["PAELDLRGSLLSRKPSD [RPC82]", 3.11],
  ["KKACIIFFDEIDAVGGA [RPT1]", 2.81],
  ["YDALLSINVHSNNITSG [RET1]", 2.59],
  ["DLQRTQTLSEKEYQCSA [YIL149C/MLP2]", 3.11],
  ["KRIKGLEFSALSAADIV [RPO31]", 3.15],
  ["LDKDSSQSSAAAGASVD [RPN6]", 3.02]
]}

====

Listing of recorded protein stability index by entry.
Assay: protein stability index of a GFP-peptide fusion (yeast GPS) (PSI 1-4); higher = more stable; sorted into four equal gates, so the index is relative within each strain
Conditions: pdr5∆
Property Label: protein stability index

{"columns": ["Input Sequence", "Observed Result"],
 "data": [
  ["NKLTGKQIVFEIPSETH [RPS7A]", 2.95],
  ["DTKPFLNKDSTNEFVGS [NUT1]", 2.79],
  ["LVEPSKVGQFDQVLNLC [FAS1]", 2.41],
  ["HYLVNLTSPAFGPHVDV [GRR1]", 2.87],
  ["IDYALTAVKQGVTSLGI [PRE8]", 2.07],
  ["PLIQNSMRTIMKANPAL [PRP8]", 2.58],
  ["TGHSQGLVTAVAIAETD [FAS1]", 3.44],
  ["VEIAYHKCDELITLFNK [RPO31]", 3.01]
]}

====

Assay: protein stability index of a GFP-peptide fusion (yeast GPS) (PSI 1-4); higher = more stable; sorted into four equal gates, so the index is relative within each strain
Conditions: doa10∆
Listing of recorded protein stability index by entry.

{"columns": ["Input Sequence", "protein stability index"],
 "data": [
  ["KSAISNNFRESDIIILK [SIR4]", 3],
  ["PWYNNPVSCIIQNDEEY [PRP8]", 1.88],
  ["DRQIINEKMQLLKDIFA [SIR4]", 2.25],
  ["RRAAYGVVRYVMESGAK [RPS3]", 1.5],
  ["FDRHCNMVLENVKELWT [SMD2]", 2.37],
  ["KASRKSVGLPSKVASSL [ECM29]", 2.81],
  ["YNLLVKISLHKREYLEV [RPN5]", 1.5],
  ["TNYYLTTARNDLGVVFA [CSL4]", 2.04],
  ["IVMEDHGVLQGTSQNYG [MED1]", 3.11],
  ["NNNNNNNDDNGNNNNNN [MED2]", 3.28],
  ["VLTGGYLDQHKRTRLES [SMC3]", 2.26],
  ["SMFLRIDYSNSQIRLYA [RGR1]", 2.9],
  ["EIKKMIITNINAIFLSS [YCG1]", 2.49],
  ["QEGLITTTMLQLFSTFD [SSN2]", 2.58],
  ["HVKAGKGLIKVNGSPIT [RPS16A]", 2.62],
  ["QNAADLQQICRVRNKDI [RPL9A]", 2.82],
  ["KILQKRSISKELIVSEE [SIR3]", 2.37],
  ["WPIVQKTYEPVLNEDDL [RPN5]", 2.32],
  ["LNLNNSELQPQNRSLQE [SNF2]", 3.24],
  ["LISLIMTTWRKLYTKEL [YMR129W/POM152]", 2.35],
  ["ISPDPNLSIDEVAVPDR [RPO31]", 2.87],
  ["ILADEMGLGKTLQTISF [ISW2]", 3.09],
  ["RVIKDFKKLNSKNMSKS [YMR153W/NUP53]", 1.95],
  ["FSHPAHQQRMSRTAADI [YCG1]", 2.01]
]}
